procedure.summary: qHTS assay to identify small molecule agonists of the estrogen receptor beta (ER-beta) signaling pathway - cell viability counter screen (AID 1259380); further: nearly all actives have a fitted effect of over 30% in size
condition: ER-beta-bla HEK293T viability, CellTiter-Glo luminescence, 16 h; series mostly up to 92.4 µM
From the text: National Center for Advancing Translational Sciences [NCATS] NIH Chemical Genomics Center [NCGC] U.S. Environmental Protection Agency [EPA] National Institutes of Environmental Health Sciences [NIEHS] National Toxicology Program [NTP] U.S. Food and Drug Administration [FDA] Estrogen receptor (ER), a nuclear hormone receptor, plays an important role in development, metabolic homeostasis and reproduction. […]
Inconclusive results are not listed. Calls of active or inactive are those of the source. The call rests on the fitted dose curve; in most records, active means well fitted cell-killing curve with a large enough effect in the repeat runs; inconclusive means weak or mixed curves, or effect the other way; inactive means flat fitted curve, though single readings scatter.
Possible outcomes: label 1 = active, label 0 = inactive

{"columns": ["compound", "label.class"],
 "data": [
  ["CN(C)[C@@H]1C(=O)C(C(N)=O)=C(O)[C@@]2(O)C(=O)C3=C(O)c4c(O)ccc(Cl)c4[C@@H](O)[C@H]3C[C@@H]12", "label 0"],
  ["Fc1ccc([C@@H]2CCNC[C@H]2COc2ccc3c(c2)OCO3)cc1", "label 1"],
  ["CCC(N)(CO)CO", "label 0"],
  ["On1ccccc1=S", "label 1"],
  ["CCCCCCCCCOC(=O)c1ccc(O)cc1", "label 1"],
  ["O=C(Nc1cccc([N+](=O)[O-])c1)c1cc2ccccc2cc1O", "label 1"],
  ["O=C(c1ccc(O)cc1O)c1ccc(O)cc1O", "label 0"],
  ["CCCCCCCCCCn1cc[n+](CCCCCCCCCC)c1C", "label 1"],
  ["CCN(CC)CCNC(=O)c1c(C)[nH]c(/C=C2\\C(=O)Nc3ccc(F)cc32)c1C", "label 1"],
  ["Cc1[nH]nc2c1N=C(c1ccccc1Cl)c1cc([N+](=O)[O-])ccc1N2", "label 1"],
  ["CCOC(=O)/C=C(C)/C=C/C=C(C)/C=C/c1c(C)cc(OC)c(C)c1C", "label 0"],
  ["CO[Si](CCCNc1ccccc1)(OC)OC", "label 0"],
  ["Cc1cc(O)c(C(C)(C)C)cc1Sc1cc(C(C)(C)C)c(O)cc1C", "label 1"],
  ["NC(=O)N1C(=O)C(C(=O)c2cc(Cl)cs2)c2cc(F)c(Cl)cc21 (stereo unspecified)", "label 1"],
  ["CCOC(=O)O[C@]1(C(=O)OCCl)CC[C@H]2[C@@H]3CCC4=CC(=O)C=C[C@]4(C)[C@H]3[C@@H](O)C[C@@]21C", "label 1"],
  ["C[C@@H]1C[C@H]2[C@@H]3CCC4=CC(=O)C=C[C@]4(C)[C@@]3(Cl)[C@@H](O)C[C@]2(C)[C@@]1(OC(=O)c1ccco1)C(=O)CCl", "label 1"],
  ["CC(C)(C)C(=O)OCOC(=O)[C@@H]1N2C(=O)[C@@H](NC(=O)[C@H](N)c3ccccc3)[C@H]2SC1(C)C", "label 0"],
  ["[Cl][Bi]([Cl])([c]1ccccc1)([c]1ccccc1)[c]1ccccc1", "label 1"],
  ["CN(C)c1ccc(C2(c3ccc(N(C)C)cc3)OC(=O)c3cc(N(C)C)ccc32)cc1", "label 0"],
  ["O=C(Nc1ccc(Oc2ccc(Cl)cc2)c(Cl)c1)c1cc(I)cc(I)c1O", "label 1"],
  ["CSc1ccc(/C=C2/C(C)=C(CC(=O)O)c3cc(F)ccc32)cc1", "label 1"],
  ["CCCCCCCCCCCCCC[P+](CCCC)(CCCC)CCCC (tested in a mixture with another compound)", "label 1"],
  ["Cc1[nH]cnc1C[C@H]1CCc2c(C)c3ccccc3n2C1=O", "label 1"],
  ["CCCCCCCCCCCC[N+](C)(C)CCCCCCCCCCCC", "label 1"],
  ["Nc1ccc(N)c2ccccc12", "label 1"],
  ["CCCCCCCC[P+](CCCCCCCC)(CCCCCCCC)CCCCCCCC", "label 1"]
]}
